# Target entity: NMDAR
# Procedure summary: NMDA receptor [3H]-MK-801 competition radioligand binding in rat forebrain
# Applied conditions: [3H]-MK-801 1 nM competition, 1 mM glutamate, 0.1 mM glycine, pH 7.4, 2 h ambient, N = 1-4
Exercise: for every item that follows, state its recorded NMDAR binding affinity pKi (mean ± SEM).

### Prompt So what does the record say about NMDAR binding affinity pKi (mean ± SEM) for NC(c1ccccc1)(C1CCCC1)C1CCC1 (stereo not shown) ?
### Response 5.63 ± 0.029

### Prompt Reported NMDAR binding affinity pKi (mean ± SEM) for CC(N)(c1cc2ccccc2s1)C1CCCC1 (stereo not shown) : what is it?
### Response < 5.00

### Prompt Dear colleague, I am looking for the recorded NMDAR binding affinity pKi (mean ± SEM) of the following compound: CCCNC(c1ccccc1)C1CCCCC1 (stereo not shown)
### Response 5.76

### Prompt I'd like to know its NMDAR binding affinity pKi (mean ± SEM). The compound in question is CC(N)(c1ccccc1)C1CCC1 (stereo not shown)
### Response 6.75 ± 0.016

### Prompt Data request, read-out NMDAR binding affinity pKi (mean ± SEM), for CCC(C)NC(C)(c1ccccc1)C1CCCC1 (stereo not shown)
### Response 7.35 ± 0.075

### Prompt Returns the measured NMDAR binding affinity pKi (mean ± SEM) for the input compound. Input: CCC(N)(c1ccccc1)C1CCCC1 (stereo not shown)
### Response 6.64 ± 0.101

### Prompt Form field: reported NMDAR binding affinity pKi (mean ± SEM) of C=CCC(N)c1ccccc1 (stereo not shown)
### Response < 5.00

### Prompt What NMDAR binding affinity pKi (mean ± SEM) value was documented for this compound, C#CC(N)(c1ccccc1)C1CCCC1 (stereo not shown) ?
### Response < 5.00

### Prompt Which NMDAR binding affinity pKi (mean ± SEM) is reported for this compound? CC(c1ccccc1)(C1CCCCC1)N1CCCCC1 (stereo not shown)
### Response 5.52 ± .118

### Prompt What measured NMDAR binding affinity pKi (mean ± SEM) goes with COc1ccc(C(C)(N)C2CCCC2)cc1 (stereo not shown) ?
### Response 6.49 ± 0.0039

### Prompt Which NMDAR binding affinity pKi (mean ± SEM) value belongs to CC(N)(c1ccccc1)C1CC1 (stereo not shown) ?
### Response 6.19 ± 0.162

### Prompt Find the recorded NMDAR binding affinity pKi (mean ± SEM) belonging to CCNC(c1ccccc1)C1CCCC1 (stereo not shown) and report it.
### Response 5.85

### Prompt Form field: reported NMDAR binding affinity pKi (mean ± SEM) of CC(N)(c1ccc(F)cc1)C1CCCC1 (stereo not shown)
### Response 6.96 ± 0.019

### Prompt What value of NMDAR binding affinity pKi (mean ± SEM) has been reported for the following compound? CC(C)NC(C)(c1ccccc1)C1CCCC1 (stereo not shown)
### Response 7.34 ± 0.041

### Prompt Record request: NMDAR binding affinity pKi (mean ± SEM) value, item C=CCCC(N)(c1ccccc1)C1CCCC1 (stereo not shown)
### Response 6.24 ± 0.444

### Prompt Form field: reported NMDAR binding affinity pKi (mean ± SEM) of C=CC(N)(c1ccccc1)C1CCCC1 (stereo not shown)
### Response 6.05

### Prompt Query: NMDAR binding affinity pKi (mean ± SEM); subject: CC(C)C(C)(N)c1ccccc1 (stereo not shown)
### Response 5.86 ± 0.044

### Prompt Item under review: CC(N)(c1cccc(C(F)(F)F)c1)C1CCCC1 (stereo not shown) . Reported NMDAR binding affinity pKi (mean ± SEM)?
### Response 5.86 ± 0.11

### Prompt I'd like to know its NMDAR binding affinity pKi (mean ± SEM). The compound in question is CC(c1ccccc1)(C1CCCC1)N1CCCCC1 (stereo not shown)
### Response 6.08 ± .0633
